Target: T1, human CTLA4 (full-length, expressed on CHO cells) (human, UniProt P16410 36-223)
T1 construct: also called huCTLA4
T1 sequence (P16410 36-223): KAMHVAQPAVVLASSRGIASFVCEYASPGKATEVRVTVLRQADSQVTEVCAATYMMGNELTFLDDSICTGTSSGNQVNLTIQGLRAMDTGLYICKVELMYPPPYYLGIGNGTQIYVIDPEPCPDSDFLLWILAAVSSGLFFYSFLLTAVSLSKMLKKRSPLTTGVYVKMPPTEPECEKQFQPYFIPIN
Test: flow cytometry, CHO cells expressing huCTLA4, PE anti-human Fc
I would appreciate it if you labelled entries 1 when MFI at 33.3 nM is 4000 MFI or higher, otherwise -1.

Binder: variant CD80 IgV-Fc A26E/Q33R/E35D/M47L/L85Q (Fc fusion, not shown: a dimerising Fc or GST) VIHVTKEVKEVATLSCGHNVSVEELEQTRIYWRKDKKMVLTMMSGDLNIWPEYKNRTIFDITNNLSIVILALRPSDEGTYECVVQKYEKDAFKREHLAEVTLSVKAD
Class Name: -1

Binder: variant CD80 IgV-Fc Q33R/E35D/D46E/M47I (Fc fusion, not shown: a dimerising Fc or GST) VIHVTKEVKEVATLSCGHNVSVEELAQTRIYWRKDKKMVLTMMSGEINIWPEYKNRTIFDITNNLSIVILALRPSDEGTYECVVLKYEKDAFKREHLAEVTLSVKAD
Class Name: -1

Binder: variant CD80 IgV-Fc Q33L/E35D/M47V (Fc fusion, not shown: a dimerising Fc or GST) VIHVTKEVKEVATLSCGHNVSVEELAQTRIYWLKDKKMVLTMMSGDVNIWPEYKNRTIFDITNNLSIVILALRPSDEGTYECVVLKYEKDAFKREHLAEVTLSVKAD
Class Name: 1

Binder: variant CD80 IgV-Fc Q27H/Q33L/E35D/M47V/N55D/L85Q/K89N (Fc fusion, not shown: a dimerising Fc or GST) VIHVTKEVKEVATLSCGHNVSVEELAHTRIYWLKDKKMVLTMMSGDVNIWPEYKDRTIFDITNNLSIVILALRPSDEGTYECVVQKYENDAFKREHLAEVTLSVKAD
Class Name: 1

Binder: variant CD80 IgV-Fc Q33L/E35D/M47I/L85Q (Fc fusion, not shown: a dimerising Fc or GST) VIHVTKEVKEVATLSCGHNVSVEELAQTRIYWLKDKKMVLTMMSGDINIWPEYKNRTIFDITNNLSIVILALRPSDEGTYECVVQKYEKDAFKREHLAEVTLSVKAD
Class Name: 1
